Target: Savinase (Lederbergia lenta, UniProt P29600)
Construct: purchased Novo Nordisk A/S
Sequence (P29600 1-269): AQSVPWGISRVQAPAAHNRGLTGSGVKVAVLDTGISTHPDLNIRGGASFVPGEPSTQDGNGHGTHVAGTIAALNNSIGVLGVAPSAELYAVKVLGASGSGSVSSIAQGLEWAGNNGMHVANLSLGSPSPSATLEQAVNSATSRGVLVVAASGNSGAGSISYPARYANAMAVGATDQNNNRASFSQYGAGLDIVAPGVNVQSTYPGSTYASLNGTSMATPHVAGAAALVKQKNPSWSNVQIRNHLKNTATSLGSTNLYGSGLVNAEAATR
Test: Storage Stability Test in Liquid Detergent (improvement factor IFI, inhibition of protease)
Type: biochemical, Bacillus
Conditions: US-type liquid detergent; 1% w/w Savinase + 1% w/w Lipolase; stabilizer 5 mmole/kg; 0, 3, 7 and 14 days at 30° C.; relative to boric acid
PARAMETER: Improvement factor IFI

1) OB(O)c1ccoc1 | 32
2) COc1ccsc1B(O)O | 8
3) OB(O)c1ccsc1 | 63
4) OB(O)c1cc2ccccc2o1 | 190
5) OB(O)c1ccco1 | 13
6) Cc1csc(B(O)O)c1 | 4
7) OB(O)c1ccc(Br)s1 | 124
8) OB(O)c1cccc2c1oc1ccccc12 | 19
9) Cc1cc(B(O)O)c(C)s1 | 7
10) OB(O)c1cccc2sc3ccccc3c12 | 12

(I) COc1ccc(B(O)O)s1
(II) OB(O)c1ccc(Cl)s1
Hi team, can someone confirm which has the larger Improvement factor IFI: I or II ? Thanks. Bench note: the answer is the label of the chosen record.
II

(A) OB(O)c1cccc2oc3ccccc3c12
(B) CCc1ccc(B(O)O)s1
Hi team, can someone confirm which has the larger Improvement factor IFI: A or B ? Thanks. Bench note: the answer is the label of the chosen record.
B

(a) OB(O)c1cc2ccccc2s1
(b) Cc1ccc(B(O)O)s1
Please indicate which entry, a or b , has the lower recorded Improvement factor IFI value. Bench note: the answer is the label of the chosen record.
b

---

Target: Savinase (Lederbergia lenta)
Sequence (P29600 1-269): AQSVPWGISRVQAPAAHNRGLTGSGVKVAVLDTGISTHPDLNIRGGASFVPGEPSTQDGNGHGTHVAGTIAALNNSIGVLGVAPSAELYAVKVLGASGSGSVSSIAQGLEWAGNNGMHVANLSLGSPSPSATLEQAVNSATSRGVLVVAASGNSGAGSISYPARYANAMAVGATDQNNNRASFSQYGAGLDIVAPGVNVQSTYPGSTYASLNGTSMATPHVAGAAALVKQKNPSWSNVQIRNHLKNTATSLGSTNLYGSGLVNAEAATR
pKi: −log10 of the molar value.
PARAMETER: pKi

1) COc1ccsc1B(O)O | 2.92
2) OB(O)CCc1cccc2[nH]c3ccccc3c12 | 2.70
3) COc1ccc(B(O)O)s1 | 3.00
4) CCCc1ccc(B(O)O)s1 | 2.52
5) OB(O)c1ccco1 | 2.40
6) CCc1ccc(B(O)O)s1 | 3.05
7) OB(O)c1ccc(Cl)s1 | 3.70
8) Cc1ccc(B(O)O)s1 | 2.52
9) OB(O)c1sccc1Br | 2.70
10) OB(O)c1ccsc1 | 2.70

(a) OB(O)c1cccc2sc3ccccc3c12
(b) OB(O)c1cc2ccccc2s1
(c) Cc1cc(B(O)O)c(C)s1
(d) OB(O)c1cc2ccccc2o1
(e) OB(O)c1ccc(Br)s1
Ascending by pKi, please. Returns: the labels listed in the requested order.
c, b, a, d, e
